Assay: Regional brain distribution in rats (dissection, iv injection)
Assay type: in vivo
Conditions: rat, cerebellum, 16 hr, read-out: Regional brain uptake, cerebellum
metric: tissue uptake at 16 h (%ID/g)
Field format: number, assumed %ID/g, no unit text.

Query: What tissue uptake at 16 h value was documented for this compound, COc1cc2c(cc1OC)C1CC(O)(C=C[123I])C(CC(C)C)CN1CC2 (racemic) ?
Response: 0.0063

====

Experiment: Regional brain distribution in rats (dissection, iv injection)
Assay type: in vivo
Details: rat, hippocampus, 2 min, read-out: Regional brain uptake, hippocampus
Description: Regional brain distribution of [^123 I]I-TBZ (with either a racemic mixture, peak A or B) in rats was obtained after an iv injection. By dissecting, weighing and counting samples from different brain regions (cortex, striatum, hippocampus and cerebellum), % dose/gram of the samples was calculated by comparing the sample counts with the counts of the diluted initial dose. The ratio of uptake in each region was obtained by dividing % dose/gram of each region with that of the cerebellum. […]
metric: tissue uptake at 2 min (%ID/g)
Reply numerically in %ID/g, unit not repeated.

Query: Requested field: tissue uptake at 2 min. Item: COc1cc2c(cc1OC)C1CC(O)(C=C[123I])C(CC(C)C)CN1CC2 (racemic) [Compound 2b]
Response: 0.58

====

Assay: Regional brain distribution in rats (dissection, iv injection)
Assay type: in vivo
Settings: rat, striatum, 240 min, read-out: Regional brain uptake, striatum
metric: tissue uptake at 4 h (%ID/g)
Report the figure in %ID/g without appending any unit label.

Query: Look at this compound and give its reported tissue uptake at 4 h. COc1cc2c(cc1OC)C1CC(O)(C=C[123I])C(CC(C)C)CN1CC2 (racemic) [Compound 2b]
Response: 0.056

====

Assay: Regional brain distribution in rats (dissection, iv injection)
Format: in vivo
Conditions: rat, striatum, 30 min, read-out: Regional brain uptake, striatum
metric: tissue uptake at 0.5 h (%ID/g)
Reply numerically in %ID/g, unit not repeated.

Query: Entry under review: COc1cc2c(cc1OC)C1CC(O)(C=C[123I])C(CC(C)C)CN1CC2 (racemic) . Reported tissue uptake at 0.5 h?
Response: 0.21

====

Experiment: Regional brain distribution in rats (dissection, iv injection)
Format: in vivo
Conditions: rat, cortex, 5 min, read-out: Regional brain uptake, cortex
metric: tissue uptake at 5 min

Query: Fill blank: measured tissue uptake at 5 min of the molecule COc1cc2c(cc1OC)C1CC(O)(C=C[123I])C(CC(C)C)CN1CC2 (single isomer, unassigned) [Peak A] is ____.
Response: 0.792 %ID/g

====

Test: Regional brain distribution in rats (dissection, iv injection)
Assay type: in vivo
Conditions: rat, striatum, 20 min, pretreated with TBZ 3 min before, n = 2, read-out: Regional brain uptake, striatum
metric: tissue uptake at 20 min (%ID/g)
Field format: number, assumed %ID/g, no unit text.

Query: Value lookup for tissue uptake at 20 min; key = COc1cc2c(cc1OC)C1CC(O)(C=C[123I])C(CC(C)C)CN1CC2 (single isomer, unassigned) [Peak A]
Response: 0.596

====

Assay: Regional brain distribution in rats (dissection, iv injection)
Type: in vivo
Details: rat, cerebellum, 6 hr, 2 rats only, read-out: Regional brain uptake, cerebellum
metric: tissue uptake at 6 h (%ID/g)
Your answer should be a plain number; it is taken to be in %ID/g.

Query: Field request: tissue uptake at 6 h | item: COc1cc2c(cc1OC)C1CC(O)(C=C[123I])C(CC(C)C)CN1CC2 (racemic) [Compound 2b]
Response: 0.025

====

Experiment: Regional brain distribution in rats (dissection, iv injection)
Type: in vivo
Conditions: rat, brain remainder, 20 min, pretreated with TBZ 3 min before, n = 2, read-out: Regional brain uptake, Rem
metric: tissue uptake at 20 min (%ID/g)
Please state the figure in %ID/g; there is no need to write the unit.

Query: I'd like to know its tissue uptake at 20 min. The compound in question is COc1cc2c(cc1OC)C1CC(O)(C=C[123I])C(CC(C)C)CN1CC2 (single isomer, unassigned) [Peak A]
Response: 0.545

====

Assay: Regional brain distribution in rats (dissection, iv injection)
Type: in vivo
Details: rat, cortex, 20 min, pretreated with TBZ 3 min before, n = 2, read-out: Regional brain uptake, cortex
metric: tissue uptake at 20 min (%ID/g)
Please reply with the bare figure in %ID/g and do not write the unit itself.

Query: Entry COc1cc2c(cc1OC)C1CC(O)(C=C[123I])C(CC(C)C)CN1CC2 (single isomer, unassigned) [Peak A] has what tissue uptake at 20 min?
Response: 0.585

====

Assay: Regional brain distribution in rats (dissection, iv injection)
Assay type: in vivo
Conditions: rat, cerebellum, 20 min, pretreated with TBZ 3 min before, n = 2, read-out: Regional brain uptake, cerebellum
metric: tissue uptake at 20 min (%ID/g)
Respond numerically; units are %ID/g and should not be typed.

Query: Dear colleague, I am looking for the recorded tissue uptake at 20 min of the following compound: COc1cc2c(cc1OC)C1CC(O)(C=C[123I])C(CC(C)C)CN1CC2 (single isomer, unassigned) [Peak A]
Response: 0.534

====

Assay: Regional brain distribution in rats (dissection, iv injection)
Format: in vivo
Settings: rat, brain remainder, 5 min, read-out: Regional brain uptake, Rem
Procedure: Regional brain distribution of [^123 I]I-TBZ (with either a racemic mixture, peak A or B) in rats was obtained after an iv injection. By dissecting, weighing and counting samples from different brain regions (cortex, striatum, hippocampus and cerebellum), % dose/gram of the samples was calculated by comparing the sample counts with the counts of the diluted initial dose. The ratio of uptake in each region was obtained by dividing % dose/gram of each region with that of the cerebellum. […]
metric: tissue uptake at 5 min
Units required after the number.

Query: May I ask what tissue uptake at 5 min has been recorded for COc1cc2c(cc1OC)C1CC(O)(C=C[123I])C(CC(C)C)CN1CC2 (single isomer, unassigned) [Peak A] ?
Response: 0.74 %ID/g

====

Assay: Regional brain distribution in rats (dissection, iv injection)
Format: in vivo
Conditions: rat, striatum, 5 min, read-out: Regional brain uptake, striatum
Procedure: Regional brain distribution of [^123 I]I-TBZ (with either a racemic mixture, peak A or B) in rats was obtained after an iv injection. By dissecting, weighing and counting samples from different brain regions (cortex, striatum, hippocampus and cerebellum), % dose/gram of the samples was calculated by comparing the sample counts with the counts of the diluted initial dose. The ratio of uptake in each region was obtained by dividing % dose/gram of each region with that of the cerebellum. […]
metric: tissue uptake at 5 min (%ID/g)
Please reply with the bare figure in %ID/g and do not write the unit itself.

Query: Requested field: tissue uptake at 5 min. Item: COc1cc2c(cc1OC)C1CC(O)(C=C[123I])C(CC(C)C)CN1CC2 (single isomer, unassigned) [Peak A]
Response: 0.77
